Known IC50 of a selection of molecules
- system.tested: CK2a2 (Homo sapiens, UniProt P19784)
- Construct: made in house
- procedure.details: Kinase competition binding assay, CK2a2
- condition.info: Table 1 kinase panel
Response body: numeric value in nM, unit text excluded.

Known results for molecules:
COc1cc(-c2cc(=O)c3c(O)c(C/C=C(\C)CCC=C(C)C)c(O)cc3o2)ccc1O [FBL-03A] : 350
COc1cc(-c2cc(=O)c3c(O)c(CC=C(C)C)c(O)cc3o2)ccc1O [FBL-03B] : 477

The molecule COc1cc(-c2cc(=O)c3c(O)cc(O)c(C/C=C(\C)CCC=C(C)C)c3o2)ccc1O [FBL-03C] showed IC50 equal to 19

The molecule COc1cc(-c2cc(=O)c3c(O)cc(O)c(CC=C(C)C)c3o2)ccc1O [FBL-03G] showed IC50 equal to 9.7

# credit: patent US20180353462A1
